Target: EP2 (Homo sapiens (Human), UniProt P43116);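 further: antagonism of PGE2-stimulated cAMP accumulation in SF295 human glioblastoma cells with endogenous EP2, cAMP read by HTRF, expressed relative to DMSO control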
Sequence (P43116 whole entry): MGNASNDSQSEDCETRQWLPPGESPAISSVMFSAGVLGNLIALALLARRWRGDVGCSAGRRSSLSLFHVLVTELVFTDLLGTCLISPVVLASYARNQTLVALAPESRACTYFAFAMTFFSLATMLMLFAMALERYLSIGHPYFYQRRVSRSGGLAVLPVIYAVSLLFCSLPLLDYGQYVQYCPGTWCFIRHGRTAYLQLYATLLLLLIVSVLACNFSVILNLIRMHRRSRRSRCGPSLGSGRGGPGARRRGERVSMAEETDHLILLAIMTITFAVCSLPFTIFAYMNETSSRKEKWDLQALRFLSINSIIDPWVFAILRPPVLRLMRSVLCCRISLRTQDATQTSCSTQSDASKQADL
pIC50: −log10 of the molar value.
Rule: pIC50 under 8 gives 0.0, otherwise 1.0.

Worked examples follow.
- smi: "CCCc1cc(-c2cc(NCCn3c(C)cc4c(C)cc(F)cc43)ncn2)cc(Cl)c1C(=O)O"
  class: 0.0
- smi: "COc1cc(F)c(F)c2c1cc(C)n2CCNc1cc(-c2ccc(-c3cncn3C)cc2)ncn1"
  class: 0.0
- smi: "COc1cccc2c1cc(C)n2CCNc1cc(-c2ccc(-c3nc(C(=O)O)cs3)cc2)ncn1"
  class: 1.0
- smi: "CCOc1cc(-c2cc(NCCn3c(C)cc4c(C)ccc(F)c43)ncn2)ccc1CNCCOC"
  class: 0.0
- smi: "COc1ccc(F)c2c1cc(C)n2CCNc1cc(-c2cc(Cl)c(C(=O)O)c(OCC(C)C)c2)ncn1"
  class: 1.0

Qu. Hello, I need to know if COc1cc(F)c(F)c2c1cc(C)n2CCNc1cc(-c2ccc(C(=O)O)c(OC(F)(F)F)c2)ncn1 has measured pIC50 not below 8. Thanks!
Ans. 0.0

Qu. Hello, I need to know if COc1ccc(F)c2c1cc(C)n2CCNc1cc(-c2ccc(C3(C(=O)O)CC3)c(F)c2)ncn1 has measured pIC50 not below 8. Thanks!
Ans. 0.0

Qu. Hello, I need to know if CCCOc1cc(-c2cc(NCCn3c(C)cc4c(OC)cccc43)ncn2)cc(F)c1C(=O)O has measured pIC50 not below 8. Thanks!
Ans. 0.0

Qu. Hello, I need to know if CCNc1cc(-c2cc(NCCn3c(C)cc4c(OC)cccc43)ncn2)ccc1-c1nnn[nH]1 has measured pIC50 not below 8. Thanks!
Ans. 1.0

Qu. Hello, I need to know if Cc1ccc(F)c2c1cc(C)n2CCNc1cc(-c2ccc(C(=O)O)c(NS(C)(=O)=O)c2)ncn1 has measured pIC50 not below 8. Thanks!
Ans. 0.0

Qu. Hello, I need to know if Cc1cc(F)c(F)c2c1cc(C)n2CCNc1cc(-c2ccc3[nH]ccc3c2)ncn1 has measured pIC50 not below 8. Thanks!
Ans. 0.0

Qu. Hello, I need to know if CCOc1cc(-c2cc(NCCn3c(C)cc4c(OC)ccc(Cl)c43)ncn2)cc(CC)c1C(=O)O has measured pIC50 not below 8. Thanks!
Ans. 0.0

Qu. Hello, I need to know if COc1ccc(F)c2c1cc(C)n2CCNc1cc(-c2ccc(-c3cnc(CCC(=O)O)o3)cc2)ncn1 has measured pIC50 not below 8. Thanks!
Ans. 0.0

Qu. Hello, I need to know if CCOc1cc(-c2cc(NCCn3c(C)cc4c(OC)ccc(Cl)c43)ncn2)cc(Cl)c1C(=O)O has measured pIC50 not below 8. Thanks!
Ans. 0.0

Qu. Hello, I need to know if COc1ccc(F)c2c1cc(C)n2CCNc1cc(-c2ccc(-c3cc(C(=O)O)[nH]n3)cc2)ncn1 has measured pIC50 not below 8. Thanks!
Ans. 0.0

Qu. Hello, I need to know if CCCOc1cc(-c2cc(NCCn3c(C)cc4c(OC)ccc(F)c43)ncn2)cc(F)c1C(=O)O has measured pIC50 not below 8. Thanks!
Ans. 0.0

Qu. Hello, I need to know if CCOc1cc(-c2cc(NCCn3c(C)cc4c(C)ccc(F)c43)ncn2)ccc1C(=O)NOCc1ccccc1 has measured pIC50 not below 8. Thanks!
Ans. 0.0

Qu. Hello, I need to know if CCS(=O)(=O)Nc1cc(-c2cc(NCCn3c(C)cc4c(C)ccc(F)c43)ncn2)ccc1C(=O)O has measured pIC50 not below 8. Thanks!
Ans. 0.0

Qu. Hello, I need to know if CCOc1cc(-c2cc(NCCn3c(C)cc4cc(C)cc(F)c43)ncn2)cc(F)c1C(=O)O has measured pIC50 not below 8. Thanks!
Ans. 0.0

Qu. Hello, I need to know if COc1cnc(-c2ccc(-c3cc(NCCn4c(C)cc5c(OC)cc(F)cc54)ncn3)cc2)nc1 has measured pIC50 not below 8. Thanks!
Ans. 0.0
